target: XenA (Pseudomonas putida, UniProt Q9R9V9); construct: recombinant purified FMN ene-reductase, His-tagged (position differs from earlier reports); experiment: stopped-flow pre-steady-state kinetics, oxidative half-reaction; type: biochemical; settings: oxidative half-reaction of reduced enzyme; read-out: Kd oxime
Sequence (Q9R9V9 entry or part of it): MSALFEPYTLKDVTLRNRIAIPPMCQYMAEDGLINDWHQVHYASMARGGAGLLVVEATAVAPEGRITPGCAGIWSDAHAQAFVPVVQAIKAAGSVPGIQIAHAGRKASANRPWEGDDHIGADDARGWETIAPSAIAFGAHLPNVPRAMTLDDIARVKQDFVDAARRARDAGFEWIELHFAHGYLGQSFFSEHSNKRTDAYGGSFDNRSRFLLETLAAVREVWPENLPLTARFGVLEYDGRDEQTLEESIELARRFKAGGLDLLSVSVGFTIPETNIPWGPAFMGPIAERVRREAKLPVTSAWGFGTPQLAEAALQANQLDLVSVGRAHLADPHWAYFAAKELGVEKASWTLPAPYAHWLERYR
value_kind: pKd
Lab note — pKd values are minus log10 of concentrations in M.

Returns the measured pKd for the input compound. Input: CCOC(=O)C(=NO)C(=O)CC
2.19
